test system: SNB-75; assay: NCI tumour cell line growth inhibition, 48 h
Calls of active or inactive are those of the source. No stated cut-off is given here; in the data, active = GI50 up to about 1.1 µM and inactive = higher.
test_readout: GI50

1) N=c1oc2ccccc2cc1C(=O)NC12CC3CC(CC(C3)C1)C2: 19.3 µM (inactive)
2) Clc1cc(OC2C3CC4CC(C3)CC2C4)nc(Cl)n1 (stereo unspecified): 39 µM (inactive)
3) Cc1cc(=O)n2nc(CSc3nnc(Sc4cc(O)ccc4O)s3)sc2n1: > 100 µM (inactive)
4) [O-][S+]1c2ccccc2N=C(c2cccc3ccccc23)CC1c1cccc2ccccc12 (stereo unspecified): 23.1 µM (inactive)
5) CC(=O)Nc1ccc(C(=O)N2N=C(C)/C(=C/c3ccc(O)cc3)C2=O)cc1: > 100 µM (inactive)
6) CCc1cccc(C)c1NC(=O)CCc1nnc(SC)o1: > 79.4 µM (inactive)
7) COc1cnc2cc(C(=O)O)c3c([N+](=O)[O-])cccc3c2c1: > 100 µM (inactive)
8) COC(=O)N/N=C(/CCN1CCCC1)CC(c1ccccc1)c1c(O)c2ccccc2oc1=O (stereo unspecified): 30.1 µM (inactive)
9) O=C1C[C@H](c2ccc(O)c(O)c2)Oc2cc(O)cc(O)c21: 83.9 µM (inactive)
10) CC(=O)c1ccc(-c2oc(-c3ccccc3)cc2-c2ccc3c(c2)OCO3)s1: > 100 µM (inactive)
11) N#CC(C#N)/N=C/c1ccncc1: > 100 µM (inactive)
12) O=c1c(C(c2ccc3ccccc3c2)c2c(O)oc3ccccc3c2=O)c(O)oc2ccccc12: 18.8 µM (inactive)
13) C=C1C(=O)C=C2C=C3C(=O)C(C)(C)C[C@]3(O)C12C (stereo partly specified): 14.2 µM (inactive)
14) COc1ccc(C(=C2C=CC=C2)c2ccc(OC)cc2)cc1: 59 µM (inactive)
15) C/C(=N\Nc1nc2ccccc2o1)c1ccncn1: 0.457 µM (active)
16) COc1cc2c(cc1OCc1ccccc1)NC(=O)[C@@H]1C[C@@H](O)CN1C2=O: 35.6 µM (inactive)
17) O=C(/C=C/c1ccsc1)c1ccc(Cl)cc1: > 100 µM (inactive)
18) O=C1[C@H]2ON(c3ccccc3)C(c3ccc(Cl)cc3)[C@H]2C(=O)N1c1ccc(Cc2ccc(N3C(=O)[C@@H]4ON(c5ccccc5)C(c5ccc(Cl)cc5)[C@@H]4C3=O)cc2)cc1 (stereo partly specified): > 100 µM (inactive)
19) O=C1C2=C(c3ccccc31)C(c1ccc(Cl)cc1)N1C(=O)CCSC1=N2 (stereo unspecified): 43.2 µM (inactive)
20) CN(C)CCCC12CCCCC1=Nc1ccccc12 (stereo unspecified): > 100 µM (inactive)
21) CCn1c(SCC(=O)NNC(=S)Nc2ccc(Cl)cc2)nc2ccccc2c1=O: > 100 µM (inactive)

###

Listing of entries alongside the reported log10 GI50.
test system: HCT-15
test_readout: log10 GI50 (log10 of the value in µM)

1) OCCc1ccsc1-c1sc(-c2cc(CCO)c(-c3sccc3CCO)s2)cc1CCO: 1.09
2) Cc1cc2c(cc1-c1cc3c(cc1C)C(C(C)C)=C(O)C(=O)/C3=C\NCC1CCCN3CCCCC13)/C(=C/NCC1CCCN3CCCCC13)C(=O)C(O)=C2C(C)C (stereo unspecified): 0.73
3) COc1ccc(/C=C2\CCC(CCN(C)C)(C3=CCCC3)C2=O)cc1Br (stereo unspecified): 0.66
4) CC(C)[Si](OC1=CCC[C@H]2NC(=O)[C@@H](Cc3ccc([N+](=O)[O-])cc3)[C@@]12C)(C(C)C)C(C)C: 0.63
5) O=C(c1ccccc1)[C@H]1Nc2ccc(Cl)cc2[C@H]2c3ccccc3O[C@H]21: 1.16
6) O=C1/C(=C/c2ccc(O)cc2)CCCC1CN1CCCCC1 (stereo unspecified): 0.12
7) O=Nc1ccc(O)c2ncccc12: 0.40
8) O=C(/N=C(/Nc1ccccc1)SCCS/C(=N\C(=O)c1ccccc1)Nc1ccccc1)c1ccccc1: 1.74
9) O=C1C2=C(c3ccccc31)C(c1ccc(Cl)cc1)N1C(=O)CCSC1=N2 (stereo unspecified): 1.83
10) COc1cc(Cc2cnc(N)nc2N)cc(OC)c1OCCCNc1ccc([N+](=O)[O-])cc1: 1.16
11) O=C1c2ccccc2C(=O)c2c(NCCNCCO)ccc(O)c21: 0.54
12) COc1ccc(C(=O)c2sc(Nc3ccc(Cl)cc3)nc2N)cc1: 0.51
13) O=C(c1ccco1)N(C(=O)N1CCN(c2ccccc2)CC1)S(=O)(=O)c1ccccc1: 1.52
14) C=CC(OC(=O)C(C)C)c1ccc(OC(=O)C(C)C)cc1 (stereo unspecified): 0.76
15) COC(=O)/N=[N+](\[O-])C(c1ccccc1)c1ccccc1: 1.95
16) COc1ccc(-c2c3c(nc4[nH]c(=S)[nH]c(=S)c24)CCCC3)cc1OC: 1.48
17) COc1ccc(C(=C2C=CC=C2)c2ccc(OC)cc2)cc1: 1.41
18) Oc1cc(-c2ccccc2)nc2cc(Cl)ccc12: -0.41
19) Cc1ccc(C(=O)/C=C/N2CCN(c3cccc(C(F)(F)F)c3)CC2)cc1: 1.19

###

tested on: 786-0; experiment: NCI tumour cell line growth inhibition, 48 h
Calls of active or inactive are those of the source. Rule as the data show it: active = GI50 up to about 1.1 µM and inactive = higher.
test_readout: GI50

1. CO[C@H]1CC[C@]2(C)C3=CC[C@@]4(C)C(CC[C@@H]4C(C)CC[C@@H](C)C(C)C)C(=CCC2C1)O3 (stereo partly specified): > 25 µM (inactive)
2. COC(=O)C1C(OS(=O)(=O)O)CCC2CN3CCc4c([nH]c5ccccc45)C3CC21 (stereo unspecified): > 100 µM (inactive)
3. COC(=O)/N=[N+](\[O-])C(c1ccccc1)c1ccccc1: > 100 µM (inactive)
4. O=c1/c(=C/c2ccc(Cl)cc2Cl)sc2nc3ccccc3n12: > 100 µM (inactive)
5. Cc1cc(O)c2c(c1)CC(O)C1=C2C(=O)c2c(O)ccc(OC3CC(O)C(OC4CC(OC5CCC(O)C(C)O5)C(O)C(C)O4)C(C)O3)c2C1=O (stereo unspecified): 1.42 µM (inactive)
6. COc1cccc(N2C(=O)C3CC(CC(C)(C)C)c4c([nH]c5ccccc45)C3C2=O)c1 (stereo unspecified): 3.8 µM (inactive)
7. CCS/C(=N\c1ccccc1)SC: > 100 µM (inactive)
8. Cc1ccc(-n2cc(-c3ccc(Cl)cc3)c(C#N)c2N)cc1: 15.3 µM (inactive)
9. C=C1C(=O)C[C@H]2C(=C)C(=O)O[C@@H]2C2C1CC[C@@]2(C)O (stereo partly specified): 19.9 µM (inactive)
10. N#C[BH2-][n+]1cn(C2CC(OP(=O)(O)OCC3OC(n4cnc5c(N)ncnc54)CC3O)C(CO)O2)c2nc(N)[nH]c(=O)c21 (stereo unspecified): > 100 µM (inactive)
11. COc1cccc(/C=N/C23CC4CC(CC(C4)C2)C3)c1: > 100 µM (inactive)
12. Cc1[nH]c(=O)[nH]c(=S)c1C(=O)NC(C)(CO)CO: > 100 µM (inactive)
13. CCOc1ccc(NCC2CC/C(=C\c3ccccc3OC)C2=O)cc1 (stereo unspecified): 3.01 µM (inactive)
14. O[C@@H]1C=C[C@]23CCN(Cc4cc5c(cc42)OCO5)[C@@H]3C1: 56.8 µM (inactive)
15. CCOc1ccc(-n2nnc3c(N)nc(N)nc32)cc1: > 100 µM (inactive)
16. N#Cc1c(Cl)cc(C#N)n2c1nc1ccccc12: 2.59 µM (inactive)
17. O=C1Sc2ccccc2C(=O)N2CSCC12 (stereo unspecified): > 100 µM (inactive)
18. Cc1ccc(/N=N/c2cc(=O)[nH]c(=O)[nH]2)cc1C: 2.82 µM (inactive)
19. COc1cc(Cc2cnc(N)nc2N)cc(OC)c1OCCCNc1ccc([N+](=O)[O-])cc1: 12.4 µM (inactive)
20. Cc1nc2ccc(S(=O)(=O)Nc3ccc(Cl)cc3)cc2c(=O)n1NC(=O)CNc1ccc(Cl)cc1: > 100 µM (inactive)
21. Cc1ccc(NC(=O)C(=O)C(C#N)c2ccccc2C)cc1C (stereo unspecified): > 68.2 µM (inactive)

###

Listing of entries alongside the reported GI50.
tested on: NCI-H23; assay: NCI tumour cell line growth inhibition, 48 h
Active and inactive are the calls of the source. Rule as the data show it: active = GI50 up to about 1.1 µM and inactive = higher.
test_readout: GI50

1) COC(=O)N/N=C(/CCN1CCCC1)CC(c1ccccc1)c1c(O)c2ccccc2oc1=O (stereo not given): > 100 µM (inactive)
2) CC(=S)NC=C(C(N)=O)C(N)=O: > 100 µM (inactive)
3) O=C1C=C(c2ccccc2)O/C1=C/C(=O)c1ccc(Cl)cc1: > 10 µM (inactive)
4) CC(=O)NNc1ncc(C(=O)/C=C/c2ccccc2C)s1: > 100 µM (inactive)
5) N#C[BH2-][n+]1cn(C2CC(OP(=O)(O)OCC3OC(n4cnc5c(N)ncnc54)CC3O)C(CO)O2)c2nc(N)[nH]c(=O)c21 (stereo not given): > 100 µM (inactive)
